System: blackgrass
assay notes: Test B pre/postemergence blackgrass
Assay type: in vivo, Alopecurus myosuroides
condition details: Preemergence, Rate 125 g/ha; scale of 0 to 10 where 0 is no effect and 10 is complete control
property: Blackgrass plant response rating
Please give the numeric answer without any surrounding text.

Known results for compounds:
* CC[C@@H](C)n1c(=O)on(C(=O)N(c2ccc(F)cc2F)C(C)C)c1=O | 8
* CC(=O)N(C)CCn1c(=O)on(C(=O)N(c2ccc(F)cc2)C(C)C)c1=O | 3
* CC(=O)NCn1c(=O)on(C(=O)N(c2ccc(F)cc2F)C(C)C)c1=O | 2

Per the records, this compound ( CC(=O)NCn1c(=O)on(C(=O)N(c2ccccc2)C(C)C)c1=O ) has Blackgrass plant response rating equal to 0

----------
Test system: sugar beet
assay notes: Test B pre/postemergence sugar beet
Assay type: in vivo, Beta vulgaris
condition details: Preemergence, Rate 500 g/ha; scale of 0 to 10 where 0 is no effect and 10 is complete control
This section presents compounds with their documented Plant response rating, Sugarbeets values.
Please give the numeric answer without any surrounding text.

- CC(=O)N(C)CCn1c(=O)on(C(=O)N(c2ccc(F)cc2)C(C)C)c1=O [Compound 625]: 0
- CC(=O)NCn1c(=O)on(C(=O)N(c2ccc(F)cc2F)C(C)C)c1=O [Compound 622]: 3
- Cc1ccccc1-n1c(=O)on(C(=O)N(c2ccccc2F)C(C)C)c1=O [Compound 204]: 0
- Cc1cc(C)c(-n2c(=O)on(C(=O)N(c3ccc(F)cc3)C(C)C)c2=O)c(Br)c1 [Compound 224]: 0

# value of Plant response rating, Sugarbeets, sugar beet, item Cc1ccccc1-n1c(=O)on(C(=O)N(c2ccc(S(C)(=O)=O)cc2)C(C)C)c1=O [Compound 203] = 0

# value of Plant response rating, Sugarbeets, sugar beet, item CC[C@@H](C)n1c(=O)on(C(=O)N(c2ccc(F)cc2F)C(C)C)c1=O [Compound 667] = 10

# value of Plant response rating, Sugarbeets, sugar beet, item CCCCCn1c(=O)on(C(=O)N(c2ccc(F)cc2F)C(C)C)c1=O [Compound 636] = 7

----------
System: crabgrass
assay notes: Test B pre/postemergence crabgrass
Type: in vivo, Digitaria sanguinalis
condition details: Rate 250 g/ha; Postemergence
This section presents compounds with their documented Plant response rating (0 to 10; 0 is no effect, 10 is complete control), Crabgrass values.

Known results for compounds:
- CCOC(=O)C(C)N(C(=O)n1oc(=O)n(-c2c(C)cccc2C)c1=O)c1ccc(F)cc1 (stereo not shown): 0
- COCCOCn1c(=O)on(C(=O)N(c2ccc(F)cc2)C(C)C)c1=O: 2
- Cc1cc(C)c(-n2c(=O)on(C(=O)N(c3ccc(F)cc3)C(C)C)c2=O)c(Br)c1: 3

# value of Plant response rating (0 to 10; 0 is no effect, 10 is complete control), Crabgrass, crabgrass, item CCC(=O)Cn1c(=O)on(C(=O)N(c2ccc(F)cc2)C(C)C)c1=O = 6

----------
Test system: morningglory
assay notes: Test B pre/postemergence morningglory
Format: in vivo, Ipomoea hederacea
condition details: Postemergence, Rate 250 g/ha; scale 0 to 10, 0 is no effect, 10 is complete control
This section presents compounds with their documented Plant response rating, Morningglory values.
Please give the numeric answer without any surrounding text.

Known results for compounds:
* CC(C)N(C(=O)n1oc(=O)n(CCl)c1=O)c1ccc(Cl)cc1 [Compound 422] | 0
* CC(C)N(C(=O)n1oc(=O)n(C(C)Cl)c1=O)c1ccc(F)cc1 (centres unmarked) [Compound 393] | 0
* CC(C)N(C(=O)n1oc(=O)n(C(C)CCl)c1=O)c1ccccc1 (centres unmarked) [Compound 411] | 6
* CC(C)Cn1c(=O)on(C(=O)N(c2ccc(F)cc2F)C(C)C)c1=O [Compound 394] | 6

Per the records, this compound ( CC(C)N(C(=O)n1oc(=O)n(C2(C)CC2)c1=O)c1ccccc1 [Compound 360] ) has Plant response rating, Morningglory equal to 4

----------
This section presents compounds with their documented Wild oats plant response rating values.
Tested on: wild oat
assay notes: Test B pre/postemergence wild oat
Type: in vivo, Avena fatua
condition details: Preemergence, Rate 250 g/ha; scale 0 to 10, 0 is no effect, 10 is complete control

• COC(C)n1c(=O)on(C(=O)N(c2ccc(F)cc2)C(C)C)c1=O (centres unmarked) = 0

Please examine the following record next.
Per the records, this compound ( CC(C)N(C(=O)n1oc(=O)n(-c2nc(Cl)sc2Cl)c1=O)c1ccc(F)cc1 ) has Wild oats plant response rating equal to 0

----------
This section presents compounds with their documented Blackgrass plant response rating values.
System: blackgrass
assay notes: Test B pre/postemergence blackgrass
Type: in vivo, Alopecurus myosuroides
condition details: Preemergence, Rate 500 g/ha; scale 0 to 10, 0 is no effect, 10 is complete control
Please give the numeric answer without any surrounding text.

Known results for compounds:
- CC(C)N(C(=O)n1oc(=O)n(C(C)C#N)c1=O)c1ccc(Cl)cc1 (stereo not drawn): 0
- CC(C)N(C(=O)n1oc(=O)n(CC#N)c1=O)c1ccc(Cl)cc1: 0
- COC(C)n1c(=O)on(C(=O)N(c2ccc(F)cc2)C(C)C)c1=O (stereo not drawn): 0
- CC(C)N(C(=O)n1oc(=O)n(C(C)CCl)c1=O)c1ccccc1 (stereo not drawn): 10
- Cc1nc(C)c(C(C)n2c(=O)on(C(=O)N(c3ccc(F)cc3F)C(C)C)c2=O)s1 (stereo not drawn): 0

Please examine the following record next.
Per the records, this compound ( CC(C)N(C(=O)n1oc(=O)n(CCl)c1=O)c1ccc(Cl)cc1 ) has Blackgrass plant response rating equal to 0

----------
This section presents compounds with their documented B. signalgrass plant response rating values.
Tested on: surinam grass
assay notes: Test B pre/postemergence surinam grass
Format: in vivo, Brachiaria decumbens
condition details: Postemergence, Rate 125 g/ha; scale of 0 to 10 where 0 is no effect and 10 is complete control
Please give the numeric answer without any surrounding text.

Known results for compounds:
- CC(C)N(C(=O)n1oc(=O)n([C@H](C)c2ccccc2)c1=O)c1ccc(Cl)cc1 [Compound 178]: 0
- Cc1ccccc1Cn1c(=O)on(C(=O)N(c2ccc(Cl)cc2)C(C)C)c1=O [Compound 136]: 0
- COC(=O)C(CCO)n1c(=O)on(C(=O)N(c2ccccc2)C(C)C)c1=O (stereo not drawn) [Compound 678]: 0
- CC(C)N(C(=O)n1oc(=O)n(CCCl)c1=O)c1ccc(F)cc1 [Compound 148]: 3

Per the records, this compound ( CC(C)N(C(=O)n1oc(=O)n(-c2cnn(C)c2Cl)c1=O)c1ccccc1 [Compound 122] ) has B. signalgrass plant response rating equal to 0

Per the records, this compound ( CC(C)N(C(=O)n1oc(=O)n(CC(F)F)c1=O)c1ccc(F)cc1F [Compound 711] ) has B. signalgrass plant response rating equal to 6

----------
This section presents compounds with their documented Redroot pigweed plant response rating (0 to 10 scale) values.
System: pigweed
assay notes: Test B pre/postemergence pigweed
Type: in vivo, Amaranthus retroflexus
condition details: Preemergence, Rate 125 g/ha

Known results for compounds:
• Cc1ccccc1-n1c(=O)on(C(=O)N(c2ccc3ccccc3c2)C(C)C)c1=O = 0
• CC(C)N(C(=O)n1oc(=O)n(C2CCC2)c1=O)c1ccc(F)cc1 = 10

Per the records, this compound ( CC(C)N(C(=O)n1oc(=O)n(CC2CCCC2)c1=O)c1ccc(F)cc1 ) has Redroot pigweed plant response rating (0 to 10 scale) equal to 6

Per the records, this compound ( CCC(CC)n1c(=O)on(C(=O)N(c2ccc(F)cc2F)C(C)C)c1=O ) has Redroot pigweed plant response rating (0 to 10 scale) equal to 10

Per the records, this compound ( CC(C)N(C(=O)n1oc(=O)n(C2(C)CC2)c1=O)c1ccccc1 ) has Redroot pigweed plant response rating (0 to 10 scale) equal to 5

----------
System: corn
assay notes: Test B pre/postemergence corn
Assay type: in vivo, Zea mays
condition details: Preemergence, Rate 250 g/ha; scale of 0 to 10 where 0 is no effect and 10 is complete control
property: Corn plant response rating

Known results for compounds:
- CC(C)N(C(=O)n1oc(=O)n(C2(C)CC2)c1=O)c1ccccc1: 4
- CC(C)N(C(=O)n1oc(=O)n(C2CCCC2)c1=O)c1ccc(Cl)cc1: 0
- CC(C)N(C(=O)n1oc(=O)n(-c2ccc3ccccc3c2)c1=O)c1ccccc1: 0
- COCCOCn1c(=O)on(C(=O)N(c2ccc(F)cc2)C(C)C)c1=O: 5
- Cc1cc(C)c(-n2c(=O)on(C(=O)N(c3ccc(F)cc3)C(C)C)c2=O)c(Br)c1: 0
- CC(C)N(C(=O)n1oc(=O)n(C2CCC2)c1=O)c1ccc(F)cc1: 0
- CCC(=O)Cn1c(=O)on(C(=O)N(c2ccc(F)cc2)C(C)C)c1=O: 0

Per the records, this compound ( CC(C)N(C(=O)n1oc(=O)[nH]c1=O)c1ccc(F)cc1F ) has Corn plant response rating equal to 0

The origin of these recorded values is patent US6737383B1.
